Listed below: IC50 values for each entry.
tested on: JR251 or RBL cells; test: Store-operated calcium entry IC50 in either JR251 or RBL cells; type: cell-based

> print(dat)
                            smiles.notation  meas.value
1  Cc1cc(-c2csc(NC(=O)c3snnc3C)c2C(=O)O)n(C)n1     < 10 µM

# input Which IC50 is reported with JR251 or RBL cells for this entry: `Cn1nc(C(F)(F)F)cc1-c1csc(NC(=O)c2cc3ccccc3o2)c1C(=O)O` ?
# output < 10 µM

# input Give JR251 or RBL cells IC50 for `Cc1csc(-c2csc(NC(=O)c3cccc(F)c3)c2C(=O)O)n1`
# output < 10 µM

# input Can you look up IC50 on JR251 or RBL cells for `Cc1ccc(-c2csc(NC(=O)c3cccc(F)c3)c2C(=O)O)s1` ?
# output < 10 µM

# input Find the measured IC50: item `O=C(Nc1scc(-c2ccc(Cl)s2)c1C(=O)O)c1cc2ccccc2o1` , target or system JR251 or RBL cells.
# output < 10 µM

# input Query the reported IC50 for JR251 or RBL cells; item: `O=C(Nc1scc(-c2ccc(Cl)nc2)c1C(=O)O)c1cccc(F)c1`
# output < 10 µM

# input # query: IC50 | item `O=C(Nc1scc(-c2cccs2)c1C(=O)O)c1ccc(F)cc1` | system: JR251 or RBL cells
# output < 10 µM

----------
Measured IC50 by item
tested on: RBL-2H3 cells; test: Fluorescence-based assay of store-operated calcium entry in RBL-2H3 cells; assay type: cell-based; settings: Rattus norvegicus, thapsigargin, 50% inhibition of Upslope

> print(dat)
                            smiles.notation  experimental.system  meas.value
1  O=C(Nc1scc(-c2ccc3scnc3c2)c1C(=O)O)c1cc2ccccc2o1        RBL-2H3 cells    ≤ 0.5 µM
2  O=C(Nc1scc(-c2cnc(C(F)(F)F)nc2)c1C(=O)O)c1cc2ccccc2o1        RBL-2H3 cells    ≤ 0.5 µM
3  Cc1ccc(-c2csc(NC(=O)c3cccc(F)c3)c2C(=O)O)s1        RBL-2H3 cells  1 to 10 µM
4  O=C(Nc1scc(-c2nc3ccccc3n2C(F)F)c1C(=O)O)c1cc2ccccc2o1        RBL-2H3 cells  1 to 10 µM

# next compound below
# input Param item = `O=C(Nc1scc(-c2c[nH]c3ccccc23)c1C(=O)O)c1cccc(F)c1` ; retrieve measured IC50.
# output 1 to 10 µM

----------
test system: RBL-2H3 cells; assay: Fluorescence-based assay of store-operated calcium entry in RBL-2H3 cells; type: cell-based; details: Rattus norvegicus, thapsigargin, 50% inhibition of Upslope
Reported IC50 values are given for each entry in this list.

# input May I ask what IC50 has been recorded for COc1ccc(-c2csc(NC(=O)c3cccc(F)c3)c2C(=O)O)cn1 [D] ?
# output 1 to 10 µM

# input Consider the compound shown here: COc1ccc(-c2csc(NC(=O)c3cc4ccccc4o3)c2C(=O)O)cn1 [E] What is its recorded IC50?
# output 1 to 10 µM

# input // IC50 lookup, key: Cc1ccc(-c2csc(NC(=O)c3cc4ccccc4o3)c2C(=O)O)c2ccccc12 [K]
# output 1 to 10 µM

----------
Tested on: RBL-2H3 cells
Assay: Fluorescence-based assay of store-operated calcium entry in RBL-2H3 cells
Type: cell-based
Settings: Rattus norvegicus, thapsigargin, 50% inhibition of Upslope
Protocol: B. Fluorescence-Based Assay of Store-Operated Calcium Entry in RBL-2H3 Cells. RBL-2H3 cells were obtained from ATCC and maintained in complete medium with 10% FBS at 37° C./6% CO2. The day prior to performing the assay, RBL-2H3 cells are plated in 50 μL of complete medium in a 384 well plate. Cells are grown at 37° C./6% CO2 overnight and grow to 50-60% confluence by the next day. […] The initial baseline fluorescence signal is measured with a FLIPR^384 (Molecular Devices) plate reader. […]
compounds and their reported IC50

Here are 2 compounds together with their reported answers.
> print(dat)
                            smiles.notation  value.type  meas.value
1  Cc1csc(-c2csc(NC(=O)c3cccc(F)c3)c2C(=O)O)n1        IC50  1 to 10 µM
2  Cc1ccc(-c2csc(NC(=O)c3cc4ccccc4o3)c2C(=O)O)c2cccnc12        IC50    ≤ 0.5 µM

Now take the following compound into account.
# input Given `O=C(Nc1scc(-c2ccc(Cl)s2)c1C(=O)O)c1cc2ccccc2o1` , state its recorded IC50.
# output ≤ 0.5 µM
